Known MIC of a selection of compounds
# Tested on: P. aeruginosa
# protocol details: Minimal inhibitory concentration (MIC), Example V
# Type: cell-based
# details: Pseudomonas aeruginosa

Guide cases for MIC, answers given:
# chem smiles, MIC
measured = [
    ("CC(C)(COC(=O)C(C)(C)C)NCl", "> 250 µg/mL"),
    ("CCCCCCCC(=O)OCC(C)(C)NCl", "> 62.5 µg/mL"),
    ("CC(C)(C)C(=O)OCC(C)(C)N(Cl)Cl", "250 µg/mL"),
    ("CCCCCC(=O)OCC(C)(C)NCl", "> 62.5 µg/mL"),
    ("CCCC(=O)OCC(C)(C)N.Cl", "> 62.5 µg/mL"),
]

(Q) # MIC lookup, item "CCCCCC(=O)OCC(C)(C)N(Cl)Cl"
(A) > 62.5 µg/mL

(Q) Name the recorded MIC for "CC(=O)OCC(C)(C)N(Cl)Cl" .
(A) 62.5 µg/mL

(Q) // lookup MIC for "CCCC(=O)OCC(C)(C)N(Cl)Cl"
(A) 62.5 µg/mL

====

# System: T. mentagrophytes
# protocol details: Minimal inhibitory concentration (MIC), Example V
# Format: cell-based
# details: Trichophyton mentagrophytes
property measured: MIC

Record excerpt, results attached:
# chem smiles, result
measured = [
    ("CCCCCC(=O)OCC(C)(C)N(Cl)Cl", "62.5 µg/mL"),
    ("CCCCCCCC(=O)OCC(C)(C)NCl", "> 62.5 µg/mL"),
    ("CCCCCC(=O)OCC(C)(C)NCl", "> 62.5 µg/mL"),
    ("CC(=O)OCC(C)(C)N(Cl)Cl", "62.5 µg/mL"),
    ("CC(C)(COC(=O)C(C)(C)C)NCl", "> 250 µg/mL"),
]

(Q) # MIC lookup, item "CCCCCC(=O)OCC(C)(C)N.Cl"
(A) > 62.5 µg/mL

(Q) # input compound: "CCCC(=O)OCC(C)(C)NCl" ; wanted: its MIC
(A) > 62.5 µg/mL

(Q) Find the recorded MIC belonging to "CCCCCCCC(=O)OCC(C)(C)N(Cl)Cl" and report it.
(A) 62.5 µg/mL

(Q) # get_value(readout='MIC', item= "CC(C)(C)C(=O)OCC(C)(C)N(Cl)Cl" )
(A) > 125 µg/mL

(Q) Can you share its MIC? I mean this compound: "CCCC(=O)OCC(C)(C)N.Cl"
(A) > 62.5 µg/mL

(Q) What value of MIC has been recorded for this entry: "CCCC(=O)OCC(C)(C)N(Cl)Cl"
(A) > 62.5 µg/mL

(Q) Return reported MIC; argument: "CCCCCCCC(=O)OCC(C)(C)N.Cl"
(A) > 62.5 µg/mL

(Q) # get_value(readout='MIC', item= "C[n+]1cccc(C(=O)OCC(C)(C)N(Cl)Cl)c1" )
(A) 125 µg/mL

====

# Test system: P. aeruginosa
# protocol details: Minimal inhibitory concentration (MIC), Example V
# Assay type: cell-based
# details: Pseudomonas aeruginosa
compounds and their reported MIC

Reference set (4 entries):
# compound, MIC
measured = [
    ("CCCCCCCC(=O)OCC(C)(C)N.Cl [III e]", "> 62.5 µg/mL"),
    ("C[n+]1cccc(C(=O)OCC(C)(C)N(Cl)Cl)c1 [IV k]", "> 250 µg/mL"),
    ("CCCCCC(=O)OCC(C)(C)N.Cl [III d]", "62.5 µg/mL"),
    ("CCCC(=O)OCC(C)(C)NCl [IV b]", "> 62.5 µg/mL"),
]

Shift focus to the following entry.
(Q) Name the recorded MIC for CCCCCCCC(=O)OCC(C)(C)N(Cl)Cl [IV i] .
(A) > 62.5 µg/mL
